Kindly state Percent Effect for each of the entries shown.
Target: Arginase-2, mitochondrial (Homo sapiens)
Assay summary: in vitro enzyme assay to detect the production of urea directly proportional to the activity of Arginase II; further: in the data most compounds retested in dose-response had high values
Format: functional
Design: scale not given: direction of the effect not stated beside the values
Experimental conditions: 33.3 µM
Give bare numbers, in %.

1. Cc1nc(N2CCOCC2)nc2c1CN(C(=O)Cc1ccccn1)CC2    4.14
2. COc1ccc(NCc2nc(=O)n(CCC(C)C)[nH]2)cc1    -8.28
3. CN1CC2(COCCN(C(=O)c3ccco3)C2)OCC1=O (stereo unspecified)    -55.4
4. COCCOc1ccc(NC(=O)N2CCCC2c2ccncc2)cn1 (stereo unspecified)    -1.47
5. CCc1ncc(C(=O)NCCNC(=O)Cc2ccc(F)cc2)s1    16.7
6. Cc1cnn(C2CCCN(C(=O)c3cc(C)sc3C)C2)c1 (stereo unspecified)    1.18

For the 5 compounds below, give their Percent Effect values.
1. CCS(=O)(=O)N1CCC2(CC(=O)N(c3cccc(C)c3)C2)C1 (stereo unspecified)
2. CC1CCN(S(=O)(=O)NCCCn2cncn2)CC1
3. CNC(=O)[C@H]1CCS(=O)(=O)[C@@H]2CN(Cc3ccc(OC)cc3)C[C@H]12
4. Cc1noc(CCCC(=O)NC(C)c2cn(-c3ccccc3)nn2)n1 (stereo unspecified)
5. CCc1c(C(=O)N2CCCN(C(C)=O)CC2)cnn1C(C)(C)C

Resp:
[-48.9, 5.38, 35.4, 1.15, 1.08]

###

Target: Chromo domain-containing protein 1 (Saccharomyces cerevisiae (strain ATCC 204508 / S288c) (Baker's yeast))
Assay summary: ScCHD-1 Enzyme Inhibition Assay; further: in the data most compounds retested in dose-response had high values
Type: functional
Design: scale not given: direction of the effect not stated beside the values
Experimental conditions: 30 µM
Kindly state Percent Effect for each of the entries shown.

1) N#Cc1ccc(C2CC(=O)Nc3c2cnn3C2CCCC2)cc1 (stereo unspecified)    -14.9%

For the 5 compounds below, give their Percent Effect values.
1. CNS(=O)(=O)Cc1ccc(CNC(=O)Nc2cccnc2)cc1
2. Cc1cccc(C(=O)NCCCN2CCN(c3ccccc3)CC2)c1
3. CN(Cc1cnn(C)c1)C(=O)NC1CCN(c2ncccn2)CC1
4. CCc1[nH]ncc1C(=O)N1CCCN(Cc2cnn(C)c2)CC1
5. CCc1ncc2c(n1)CN(Cc1nc(-c3ccccn3)no1)CC2

Resp:
1. -12.7%
2. -9.93%
3. -8.45%
4. -17.9%
5. -10.3%

###

Species: Homo sapiens
Assay summary: To identify inhibition of the IFN signalling (Jak-Stat) pathway via expression of an eGFP reporter gene under the control of an IFN-stimulated response element (ISRE) containing MxA promoter.
Assay type: functional
Design: scale not given: direction of the effect not stated beside the values
Experimental conditions: 30 µM
Give True when the value for Percent Effect is at least 20%. Give False when it is less.

Would you please look over these solved cases?
1. CCOCCCNC(=O)c1cc(C)nc(N2CCCC2)n1    False
2. CC(C)(C)C(=O)NCCn1ccc(-c2ccncc2)n1    True
3. CC(C)n1ccc(-c2cc(C(=O)N3CCCC3)c3ccccn23)n1    True
4. CCc1nc(C2CCCN2CC(=O)Nc2nncs2)no1 (stereo unspecified)    False
5. N#Cc1cccnc1N1CCC2(CCCN(C3CCOCC3)C2=O)C1 (stereo unspecified)    False

Here's the next entry for you.
Req: Percent Effect >= 20% for Cn1ccnc1SCc1nc(C(C)(C)NC(=O)OC(C)(C)C)no1 ?
Resp: True
